system: TPC1 cells; experiment: MTT cell viability assay, TPC1; assay type: cell-based, Human; settings: Homo sapiens, TPC1, 72-hours of exposure, 1% FBS, mean±standard deviation (n=3), read-out: IC50 for reducing viability of TPC1 cells versus DMSO control
Classify: MET when IC50 is strictly less than 5 µM; NOT MET when IC50 is not.

Examples from the recorded data:
molecule: CNC(=O)c1cc(-c2ccc3ccc4ccccc4c3c2)n(-c2ccc(NC(=O)CN)cc2)n1 [Compound 7]
answer-label: MET
//
molecule: NCC(=O)Nc1ccc(-n2nc(CO)cc2-c2ccc3c(ccc4ccccc43)c2)cc1 [Compound 10]
answer-label: NOT MET
//
molecule: CC(C)NC(=O)c1cc(-c2ccc3ccc4ccccc4c3c2)n(-c2ccc(NC(=O)CN)cc2)n1 [Compound 15]
answer-label: MET
//
molecule: NCC(=O)Nc1ccc(-n2nc(CO)cc2-c2ccc3ccc4ccccc4c3c2)cc1 [Compound 9]
answer-label: MET

Dear reviewer, please state whether NCC(=O)Nc1ccc(-n2nc(C(F)(F)F)cc2-c2ccc3c(ccc4ccccc43)c2)cc1 [OSU-03012, reference compound] has IC50 strictly beneath 5 µM.
MET

In plain terms, does CNC(=O)c1cc(-c2ccc3c(ccc4ccccc43)c2)n(-c2ccc(N)cc2)n1 [Compound 5] come in under 5 µM for IC50?
NOT MET

State whether 5 µM exceeds IC50 recorded for CNC(=O)c1cc(-c2ccc3ccc4ccccc4c3c2)n(-c2ccc(NC(=O)CCN)cc2)n1 [Compound 13] .
MET

Say whether its IC50 is strictly beneath 5 µM. Entry: NCCC(=O)Nc1ccc(-n2nc(C(F)(F)F)cc2-c2ccc3ccc4ccccc4c3c2)cc1 [Compound 4]
MET

Determine whether this molecule shows IC50 lower than 5 µM (ties excluded): CNC(=O)c1cc(-c2ccc3ccc4ccccc4c3c2)n(-c2ccc(N)cc2)n1 [Compound 17]
NOT MET

Determine whether this molecule shows IC50 lower than 5 µM (ties excluded): CCNC(=O)c1cc(-c2ccc3ccc4ccccc4c3c2)n(-c2ccc(NC(=O)CN)cc2)n1 [Compound 2]
MET

Below 5 µM on IC50? Entry NCCC(=O)Nc1ccc(-n2nc(CO)cc2-c2ccc3c(ccc4ccccc43)c2)cc1 [Compound 12]
NOT MET

In the record for CNC(=O)c1cc(-c2ccc3c(ccc4ccccc43)c2)n(-c2ccc(NC(=O)CN)cc2)n1 [Compound 8] , is IC50 less than 5 µM?
MET

Is the reported IC50 for NCC(=O)Nc1ccc(-n2nc(C(F)(F)F)cc2-c2ccc3ccc4ccccc4c3c2)cc1 [Compound 3] strictly below 5 µM?
MET

is_below(IC50, 5 µM) for Nc1ccc(-n2nc(CO)cc2-c2ccc3ccc4ccccc4c3c2)cc1 [Compound 16] ?
MET

Identify whether the molecule NCC(=O)Nc1ccc(-n2nc(C(=O)NCc3ccccc3)cc2-c2ccc3ccc4ccccc4c3c2)cc1 [Compound 1] records IC50 below 5 µM.
MET

====

Reported IC50 is given for each of the following compounds.
system: BCPAP cells; experiment: MTT cell viability assay, BCPAP; type: cell-based, Human; settings: Homo sapiens, BCPAP, 72-hours of exposure, 1% FBS, mean±standard deviation (n=3), read-out: IC50 for reducing viability of BCPAP cells versus DMSO control
Give just the numeric value; µM need not be written.

Some compounds with recorded IC50:
compound: NCC(=O)Nc1ccc(-n2nc(CO)cc2-c2ccc3c(ccc4ccccc43)c2)cc1 [Compound 10]
reported-result: 6.53
--
compound: NCCC(=O)Nc1ccc(-n2nc(CO)cc2-c2ccc3c(ccc4ccccc43)c2)cc1 [Compound 12]
reported-result: 3.76
--
compound: NCCC(=O)Nc1ccc(-n2nc(CO)cc2-c2ccc3ccc4ccccc4c3c2)cc1 [Compound 11]
reported-result: 4.5
--
compound: NCC(=O)Nc1ccc(-n2nc(C(F)(F)F)cc2-c2ccc3c(ccc4ccccc43)c2)cc1 [OSU-03012, reference compound]
reported-result: 2.93
--
compound: CNC(=O)c1cc(-c2ccc3ccc4ccccc4c3c2)n(-c2ccc(NC(=O)CN)cc2)n1 [Compound 7]
reported-result: 3.71
--
compound: CC(C)NC(=O)c1cc(-c2ccc3ccc4ccccc4c3c2)n(-c2ccc(NC(=O)CN)cc2)n1 [Compound 15]
reported-result: 1.49
--
compound: NCC(=O)Nc1ccc(-n2nc(CO)cc2-c2ccc3ccc4ccccc4c3c2)cc1 [Compound 9]
reported-result: 4.04

Please look up its IC50: NCCC(=O)Nc1ccc(-n2nc(C(F)(F)F)cc2-c2ccc3ccc4ccccc4c3c2)cc1 [Compound 4]
2.07

====

system: FTC133 cells; assay: MTT cell viability assay, FTC133; assay type: cell-based, Human; settings: Homo sapiens, FTC-133, 72-hours of exposure, 1% FBS, mean±standard deviation (n=3), read-out: IC50 for reducing viability of FTC133 cells versus DMSO control
# key: entry, value: pIC50
Expect pIC50 as a plain number equal to -log10 of the molar concentration.

As a guide, the following entries are already answered.
mol-smiles: NCCC(=O)Nc1ccc(-n2nc(CO)cc2-c2ccc3ccc4ccccc4c3c2)cc1
readout-kind: pIC50
reported-result: 5.40
--
mol-smiles: CNC(=O)c1cc(-c2ccc3ccc4ccccc4c3c2)n(-c2ccc(NC(=O)CCN)cc2)n1
readout-kind: pIC50
reported-result: 5.31

# get_value(readout='pIC50', item= CNC(=O)c1cc(-c2ccc3c(ccc4ccccc43)c2)n(-c2ccc(N)cc2)n1 )
5.30

====

tested on: BCPAP cells; test: MTT cell viability assay, BCPAP; type: cell-based, Human; conditions: Homo sapiens, BCPAP, 72-hours of exposure, 1% FBS, mean±standard deviation (n=3), read-out: IC50 for reducing viability of BCPAP cells versus DMSO control
Collected IC50 values appear next to each entry.

Use these answered entries as a reference point.
mol-smiles: Nc1ccc(-n2nc(CO)cc2-c2ccc3ccc4ccccc4c3c2)cc1
IC50: > 10 µM
//
mol-smiles: CNC(=O)c1cc(-c2ccc3c(ccc4ccccc43)c2)n(-c2ccc(N)cc2)n1
IC50: > 10 µM

Would you kindly look at the next entry?
Query for BCPAP cells: what IC50 does the record show for CNC(=O)c1cc(-c2ccc3ccc4ccccc4c3c2)n(-c2ccc(N)cc2)n1 ?
> 10 µM
